- Tested on: SYO-1 complex spheroid growth, percent test/control
- measurement-protocol: Anticancer human tumor SYO-1 cell line growth inhibition [Asc];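 also: compound exposure lasted 7 days after spheroids grew 3 days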
- particulars: curve of first compound; second compound 0.3 µM
- Description: Multicellular complex tumor spheroid response to apoptosis pathway targeting inhibitors Alrizomadlin, Pelcitoclax, and Dasminapant in combination with a variety of drugs and investigational agents in selected tumor cell lines […] Compounds. […] If the clinical Cmax for an agent had not been determined, the highest concentration tested was 10 microM. […]
readout-label: IC50

O=C(c1cc(Cc2n[nH]c(=O)c3ccccc23)ccc1F)N1CCN(C(=O)C2CC2)CC1 + CCN1C(C(=O)NC23CCC(C(=O)O)(CC2)CC3)C(c2cccc(Cl)c2F)C2(C(=O)Nc3cc(Cl)ccc32)C12CCCCC2 : < 31.6 nM

Query: Give SYO-1 complex spheroid growth, percent test/control IC50 for C#Cc1c(F)ccc2cc(O)cc(-c3ncc4c(N5CC6CCC(C5)N6)nc(OCC56CCCN5CC(F)C6)nc4c3F)c12 (configuration not stated) + CCN1C(C(=O)NC23CCC(C(=O)O)(CC2)CC3)C(c2cccc(Cl)c2F)C2(C(=O)Nc3cc(Cl)ccc32)C12CCCCC2
Response: < 31.6 nM

----------
- System: SYO-1 complex spheroid growth, percent test/control
- measurement-protocol: Anticancer human tumor SYO-1 cell line growth inhibition [Asc];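 also: compound exposure lasted 7 days after spheroids grew 3 days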;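 as to viability, T/C: 100% = DMSO vehicle control viability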
- particulars: second compound 3 µM; first compound 0.0316 µM; stronger effect = lower value
readout-label: viability, T/C (%)
Express your answer in %, writing the number without its unit.

O=C(c1cc(Cc2n[nH]c(=O)c3ccccc23)ccc1F)N1CCN(C(=O)C2CC2)CC1 + CCN1C(C(=O)NC23CCC(C(=O)O)(CC2)CC3)C(c2cccc(Cl)c2F)C2(C(=O)Nc3cc(Cl)ccc32)C12CCCCC2 : 1.11

Please examine the following record next.
Query: Which viability, T/C value belongs to C=C(F)C(=O)N1CCN(c2nc(OCC3CCCN3C)nc3c2CCN(c2cccc4cccc(Cl)c24)C3)CC1CC#N (configuration not stated) + CCN1C(C(=O)NC23CCC(C(=O)O)(CC2)CC3)C(c2cccc(Cl)c2F)C2(C(=O)Nc3cc(Cl)ccc32)C12CCCCC2 ?
Response: 2.61

----------
- Tested on: SYO-1 complex spheroid growth, percent test/control
- measurement-protocol: Anticancer human tumor SYO-1 cell line growth inhibition [Asc];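 also: compound exposure lasted 7 days after spheroids grew 3 days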;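 as to viability, T/C: 100% = DMSO vehicle control viability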
- particulars: second compound 0.0949 µM; first compound 0.0316 µM; stronger effect = lower value
readout-label: viability, T/C (%)
Express your answer in %, writing the number without its unit.

C#Cc1c(F)ccc2cc(O)cc(-c3ncc4c(N5CC6CCC(C5)N6)nc(OCC56CCCN5CC(F)C6)nc4c3F)c12 (stereo unspecified) + CCN1C(C(=O)NC23CCC(C(=O)O)(CC2)CC3)C(c2cccc(Cl)c2F)C2(C(=O)Nc3cc(Cl)ccc32)C12CCCCC2 : 84.8
CCN1CCN(Cc2ccc(Nc3ncc(F)c(-c4cc(F)c5nc(C)n(C(C)C)c5c4)n3)nc2)CC1 + CCN1C(C(=O)NC23CCC(C(=O)O)(CC2)CC3)C(c2cccc(Cl)c2F)C2(C(=O)Nc3cc(Cl)ccc32)C12CCCCC2 : 87.5
Cn1ncnc1[C@H]1c2n[nH]c(=O)c3cc(F)cc(c23)N[C@@H]1c1ccc(F)cc1 + CCN1C(C(=O)NC23CCC(C(=O)O)(CC2)CC3)C(c2cccc(Cl)c2F)C2(C(=O)Nc3cc(Cl)ccc32)C12CCCCC2 : 6.03

Query: Which viability, T/C value belongs to O=C(c1ccc(F)c(F)c1Nc1ccc(I)cc1F)N1CC(O)([C@@H]2CCCCN2)C1 + CCN1C(C(=O)NC23CCC(C(=O)O)(CC2)CC3)C(c2cccc(Cl)c2F)C2(C(=O)Nc3cc(Cl)ccc32)C12CCCCC2 ?
Response: 94.5

Query: Which viability, T/C value belongs to O=C(c1cc(Cc2n[nH]c(=O)c3ccccc23)ccc1F)N1CCN(C(=O)C2CC2)CC1 + CCN1C(C(=O)NC23CCC(C(=O)O)(CC2)CC3)C(c2cccc(Cl)c2F)C2(C(=O)Nc3cc(Cl)ccc32)C12CCCCC2 ?
Response: 71.7

Query: Which viability, T/C value belongs to NC1CCC(NC2CC2c2ccccc2)CC1 (stereo unspecified) + CCN1C(C(=O)NC23CCC(C(=O)O)(CC2)CC3)C(c2cccc(Cl)c2F)C2(C(=O)Nc3cc(Cl)ccc32)C12CCCCC2 ?
Response: 55.2

----------
- Test system: SYO-1 complex spheroid growth, percent test/control
- measurement-protocol: Anticancer human tumor SYO-1 cell line growth inhibition [Asc];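 also: compound exposure lasted 7 days after spheroids grew 3 days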;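 as to viability, T/C: 100% = DMSO vehicle control viability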
- particulars: second compound 0.316 µM; first compound 0.000316 µM; stronger effect = lower value
readout-label: viability, T/C (%)
Express your answer in %, writing the number without its unit.

Cn1ncnc1[C@H]1c2n[nH]c(=O)c3cc(F)cc(c23)N[C@@H]1c1ccc(F)cc1 + CNC(C)C(=O)NC1CN(S(=O)(=O)c2cccc(S(=O)(=O)N3CCC4CCC(C(=O)NC(c5ccccc5)c5ccccc5)N4C(=O)C(NC(=O)C(C)NC)C3)c2)CCC2CCC(C(=O)NC(c3ccccc3)c3ccccc3)N2C1=O : 112
Cn1ncnc1[C@H]1c2n[nH]c(=O)c3cc(F)cc(c23)N[C@@H]1c1ccc(F)cc1 + Cc1c(S(C)(=O)=O)c(-c2cc(F)cc(N3CCN(c4ccc(NS(=O)(=O)c5ccc(NC(CCN6CCC(C(=O)OCCCP(=O)(O)O)CC6)CSc6ccccc6)c(S(=O)(=O)C(F)(F)F)c5)cc4)CC3)c2)c(-c2ccc(Cl)cc2)n1C(C)C : 97.1
NC1CCC(NC2CC2c2ccccc2)CC1 (centres undefined) + CNC(C)C(=O)NC1CN(S(=O)(=O)c2cccc(S(=O)(=O)N3CCC4CCC(C(=O)NC(c5ccccc5)c5ccccc5)N4C(=O)C(NC(=O)C(C)NC)C3)c2)CCC2CCC(C(=O)NC(c3ccccc3)c3ccccc3)N2C1=O : 99.8

Please examine the following record next.
Query: Which viability, T/C value belongs to NC1CCC(NC2CC2c2ccccc2)CC1 (centres undefined) + Cc1c(S(C)(=O)=O)c(-c2cc(F)cc(N3CCN(c4ccc(NS(=O)(=O)c5ccc(NC(CCN6CCC(C(=O)OCCCP(=O)(O)O)CC6)CSc6ccccc6)c(S(=O)(=O)C(F)(F)F)c5)cc4)CC3)c2)c(-c2ccc(Cl)cc2)n1C(C)C ?
Response: 105

----------
As shown below, each of these molecules has a reported viability, T/C value.
- Test system: SYO-1 complex spheroid growth, percent test/control
- measurement-protocol: Anticancer human tumor SYO-1 cell line growth inhibition [Asc];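 also: compound exposure lasted 7 days after spheroids grew 3 days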;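 as to viability, T/C: 100% = DMSO vehicle control viability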
- particulars: second compound 0.0316 µM; first compound 0.00316 µM; stronger effect = lower value
Express your answer in %, writing the number without its unit.

Worked cases, answers included:
CCN1CCN(Cc2ccc(Nc3ncc(F)c(-c4cc(F)c5nc(C)n(C(C)C)c5c4)n3)nc2)CC1 + CNC(C)C(=O)NC1CN(S(=O)(=O)c2cccc(S(=O)(=O)N3CCC4CCC(C(=O)NC(c5ccccc5)c5ccccc5)N4C(=O)C(NC(=O)C(C)NC)C3)c2)CCC2CCC(C(=O)NC(c3ccccc3)c3ccccc3)N2C1=O : 101
CCN1CCN(Cc2ccc(Nc3ncc(F)c(-c4cc(F)c5nc(C)n(C(C)C)c5c4)n3)nc2)CC1 + Cc1c(S(C)(=O)=O)c(-c2cc(F)cc(N3CCN(c4ccc(NS(=O)(=O)c5ccc(NC(CCN6CCC(C(=O)OCCCP(=O)(O)O)CC6)CSc6ccccc6)c(S(=O)(=O)C(F)(F)F)c5)cc4)CC3)c2)c(-c2ccc(Cl)cc2)n1C(C)C : 102

Query: Which viability, T/C value belongs to NC1CCC(NC2CC2c2ccccc2)CC1 (stereo not drawn) + Cc1c(S(C)(=O)=O)c(-c2cc(F)cc(N3CCN(c4ccc(NS(=O)(=O)c5ccc(NC(CCN6CCC(C(=O)OCCCP(=O)(O)O)CC6)CSc6ccccc6)c(S(=O)(=O)C(F)(F)F)c5)cc4)CC3)c2)c(-c2ccc(Cl)cc2)n1C(C)C ?
Response: 90.5

----------
- System: SYO-1 complex spheroid growth, percent test/control
- measurement-protocol: Anticancer human tumor SYO-1 cell line growth inhibition [Asc];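 also: compound exposure lasted 7 days after spheroids grew 3 days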;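 as to viability, T/C: 100% = DMSO vehicle control viability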
- particulars: second compound 0.316 µM; first compound 0.01 µM; stronger effect = lower value
As shown below, each of these molecules has a reported viability, T/C value.
Express your answer in %, writing the number without its unit.

NC1CCC(NC2CC2c2ccccc2)CC1 (stereo not drawn) + Cc1c(S(C)(=O)=O)c(-c2cc(F)cc(N3CCN(c4ccc(NS(=O)(=O)c5ccc(NC(CCN6CCC(C(=O)OCCCP(=O)(O)O)CC6)CSc6ccccc6)c(S(=O)(=O)C(F)(F)F)c5)cc4)CC3)c2)c(-c2ccc(Cl)cc2)n1C(C)C : 91.7
CCN1CCN(Cc2ccc(Nc3ncc(F)c(-c4cc(F)c5nc(C)n(C(C)C)c5c4)n3)nc2)CC1 + Cc1c(S(C)(=O)=O)c(-c2cc(F)cc(N3CCN(c4ccc(NS(=O)(=O)c5ccc(NC(CCN6CCC(C(=O)OCCCP(=O)(O)O)CC6)CSc6ccccc6)c(S(=O)(=O)C(F)(F)F)c5)cc4)CC3)c2)c(-c2ccc(Cl)cc2)n1C(C)C : 99.1
Cn1ncnc1[C@H]1c2n[nH]c(=O)c3cc(F)cc(c23)N[C@@H]1c1ccc(F)cc1 + CNC(C)C(=O)NC1CN(S(=O)(=O)c2cccc(S(=O)(=O)N3CCC4CCC(C(=O)NC(c5ccccc5)c5ccccc5)N4C(=O)C(NC(=O)C(C)NC)C3)c2)CCC2CCC(C(=O)NC(c3ccccc3)c3ccccc3)N2C1=O : 92.1
O=C(c1ccc(F)c(F)c1Nc1ccc(I)cc1F)N1CC(O)([C@@H]2CCCCN2)C1 + Cc1c(S(C)(=O)=O)c(-c2cc(F)cc(N3CCN(c4ccc(NS(=O)(=O)c5ccc(NC(CCN6CCC(C(=O)OCCCP(=O)(O)O)CC6)CSc6ccccc6)c(S(=O)(=O)C(F)(F)F)c5)cc4)CC3)c2)c(-c2ccc(Cl)cc2)n1C(C)C : 93.6

Please examine the following record next.
Query: Give SYO-1 complex spheroid growth, percent test/control viability, T/C for COc1c(OCCCN2CCOCC2)ccc2c3n(c(=NC(=O)c4cnc(N)nc4)nc12)CCN3 + Cc1c(S(C)(=O)=O)c(-c2cc(F)cc(N3CCN(c4ccc(NS(=O)(=O)c5ccc(NC(CCN6CCC(C(=O)OCCCP(=O)(O)O)CC6)CSc6ccccc6)c(S(=O)(=O)C(F)(F)F)c5)cc4)CC3)c2)c(-c2ccc(Cl)cc2)n1C(C)C
Response: 98.3
